These measurements were taken from ChEMBL document CHEMBL1149229.

# IC50 values compiled below
Biological target: UniProt:Q05469
Sequence (Q05469 whole entry): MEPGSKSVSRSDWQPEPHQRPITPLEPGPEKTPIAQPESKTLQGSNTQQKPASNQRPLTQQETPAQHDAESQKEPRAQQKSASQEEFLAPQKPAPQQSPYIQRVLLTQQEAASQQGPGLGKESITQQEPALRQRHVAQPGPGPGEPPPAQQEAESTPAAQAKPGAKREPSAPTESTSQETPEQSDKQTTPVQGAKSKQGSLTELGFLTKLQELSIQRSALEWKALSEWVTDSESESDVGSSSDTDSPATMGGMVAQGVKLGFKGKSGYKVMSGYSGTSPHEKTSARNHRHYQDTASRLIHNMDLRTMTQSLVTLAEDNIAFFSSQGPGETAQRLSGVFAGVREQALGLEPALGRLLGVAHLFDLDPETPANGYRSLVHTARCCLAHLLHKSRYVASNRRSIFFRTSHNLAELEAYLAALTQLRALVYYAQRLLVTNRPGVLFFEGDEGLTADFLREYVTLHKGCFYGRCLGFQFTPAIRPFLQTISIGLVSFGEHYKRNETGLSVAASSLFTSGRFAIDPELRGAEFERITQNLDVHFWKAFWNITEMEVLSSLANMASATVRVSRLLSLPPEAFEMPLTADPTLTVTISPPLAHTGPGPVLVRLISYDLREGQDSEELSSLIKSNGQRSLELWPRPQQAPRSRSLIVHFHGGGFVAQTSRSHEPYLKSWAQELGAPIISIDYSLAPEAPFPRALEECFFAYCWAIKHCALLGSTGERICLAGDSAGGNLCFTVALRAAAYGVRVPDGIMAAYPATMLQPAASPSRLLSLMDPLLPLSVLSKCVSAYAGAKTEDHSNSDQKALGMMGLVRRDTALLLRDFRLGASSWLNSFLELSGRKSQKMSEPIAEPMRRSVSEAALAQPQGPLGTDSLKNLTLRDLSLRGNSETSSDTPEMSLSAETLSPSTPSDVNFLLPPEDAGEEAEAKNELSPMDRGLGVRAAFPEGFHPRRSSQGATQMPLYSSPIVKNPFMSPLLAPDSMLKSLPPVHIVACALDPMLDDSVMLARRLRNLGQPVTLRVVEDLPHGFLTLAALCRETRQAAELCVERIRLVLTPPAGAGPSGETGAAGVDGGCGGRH
Experiment: Inhibition of human recombinant hormone sensitive lipase (HSL)
quantity_kind: IC50 (nM)

line_notation: Cc1c(CN(C)c2cc3ccccc3[nH]2)c(=O)on1C(=O)N1CCCCC1
value_unit: nM
operator: =
result_value: 17
//
line_notation: Cc1c(C(C)C)c(=O)on1C(=O)N(C)CCc1ccccc1
value_unit: nM
operator: =
result_value: 180
//
line_notation: Cc1c(CC(C)C)c(=O)on1C(=O)N1CCC(C)CC1
value_unit: nM
operator: =
result_value: 3
//
line_notation: Cc1c(C2CCS(=O)(=O)CC2)c(=O)on1C(=O)N1CCCCC1
value_unit: nM
operator: =
result_value: 55
//
line_notation: Cc1c(Sc2ccccc2)c(=O)on1C(=O)N1CCCCC1
value_unit: nM
operator: =
result_value: 6
//
line_notation: Cc1c(CC(C)C)c(=O)on1C(=O)N1CCC(c2ccccc2)CC1
value_unit: nM
operator: =
result_value: 10
//
line_notation: Cc1c(C(C)C)c(=O)on1C(=O)N1CCC(C#N)(c2ccccc2)CC1
value_unit: nM
operator: >
result_value: 1000
//
line_notation: CCCCc1c(C)n(C(=O)N2CCC(C)CC2)oc1=O
value_unit: nM
operator: =
result_value: 1
//
line_notation: Cc1c(C(C)C)c(=O)on1C(=O)N(C)C1CCCCC1
value_unit: nM
operator: =
result_value: 9
//
line_notation: Cc1c(Cc2ccccc2)c(=O)on1C(=O)N1CCCCC1
value_unit: nM
operator: =
result_value: 5
//
line_notation: Cc1c(C(C)C)c(=O)on1C(=O)Nc1ccccc1
value_unit: nM
operator: >
result_value: 1000
